Assay: Ratio of drug level in brain to plasma in mouse at 3 mg/kg, po after 60 mins
Format: ADME, organism-based
Parameters: dose 3 mg/kg, route oral

>  <STRUCTURE STRING>
Cc1c(CN[C@H]2CC[C@@H](F)C2)nn(CCC#N)c1-c1cc(F)cc(F)c1

>  <Kp at 1 h>
3.42

$$$$

====

Target: Mu-type opioid receptor (Homo sapiens)
Sequence (P35372 whole entry): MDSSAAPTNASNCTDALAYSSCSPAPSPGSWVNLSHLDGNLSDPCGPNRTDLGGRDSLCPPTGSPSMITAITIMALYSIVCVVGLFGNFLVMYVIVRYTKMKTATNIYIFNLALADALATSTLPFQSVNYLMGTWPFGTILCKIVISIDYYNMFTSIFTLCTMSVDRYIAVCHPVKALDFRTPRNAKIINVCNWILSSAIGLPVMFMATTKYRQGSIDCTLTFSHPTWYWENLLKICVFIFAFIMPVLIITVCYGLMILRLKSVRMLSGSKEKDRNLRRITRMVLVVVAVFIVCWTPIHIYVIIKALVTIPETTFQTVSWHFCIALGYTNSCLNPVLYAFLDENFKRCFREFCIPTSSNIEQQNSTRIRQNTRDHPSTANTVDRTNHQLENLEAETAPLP
Assay: Displacement of [3H]diprenorphin from human cloned mu opioid receptor expressed in CHO cells

>  <STRUCTURE STRING>
Cc1c(CN[C@H]2CC[C@@H](F)C2)nn(CCC#N)c1-c1cc(F)cc(F)c1

>  <IC50>
> 10 µM

$$$$

Source: ChEMBL document CHEMBL1153056
